Target: T1, SETMAR R371A (Homo sapiens, UniProt Q53H47 14-684, R384A)
T1 sequence: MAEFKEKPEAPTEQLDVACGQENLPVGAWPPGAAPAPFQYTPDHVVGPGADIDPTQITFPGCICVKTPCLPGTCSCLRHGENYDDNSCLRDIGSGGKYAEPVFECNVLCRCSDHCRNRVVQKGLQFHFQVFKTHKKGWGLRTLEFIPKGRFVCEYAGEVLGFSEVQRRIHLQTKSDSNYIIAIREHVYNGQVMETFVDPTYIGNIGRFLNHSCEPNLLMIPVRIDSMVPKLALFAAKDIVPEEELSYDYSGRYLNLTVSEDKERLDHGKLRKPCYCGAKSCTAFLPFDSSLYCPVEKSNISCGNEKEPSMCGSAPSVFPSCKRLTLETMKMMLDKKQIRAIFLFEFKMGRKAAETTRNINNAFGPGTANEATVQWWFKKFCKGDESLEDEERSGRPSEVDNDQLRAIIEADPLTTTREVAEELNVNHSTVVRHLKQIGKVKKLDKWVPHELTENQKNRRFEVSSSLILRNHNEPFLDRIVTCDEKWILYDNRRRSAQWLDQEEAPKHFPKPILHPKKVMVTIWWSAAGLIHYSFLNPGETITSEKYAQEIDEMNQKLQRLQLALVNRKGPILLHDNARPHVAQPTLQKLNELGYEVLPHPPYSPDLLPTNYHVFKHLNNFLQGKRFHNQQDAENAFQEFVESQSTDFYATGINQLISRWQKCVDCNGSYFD
Assay: fluorescence anisotropy; 10 nM probe; FA and competition: 50 mM Hepes pH 7.0, 150 mM NaCl, 1 mM DTT; temperature not stated. Crystals: 50 mM Hepes pH 7.5, 150 mM NaCl, 1 mM DTT; 0.1 M Mg formate, 15% PEG3350, 20 C
Conditions: protein: recombinant; chain copies: 2; label: 5' rhodamine (C6 amino) on strand 2; blunt
pKd: −log10 of the molar value.
measurement_kind: pKd

> print(dat)
                                     binder  measurement.kind  reported.measurement
1  rhodamine Hsmar1 TIR probe (dsDNA) DNA 1: TTAGGTTGGTGCAAAAGTAATTGCGGTT DNA 2: AACCGCAATTACTTTTGCACCAACCTAA               pKd                  6.28
